Source of measurements: paper PMC7708039

Biological target: T1, Rad4-Rad23 WT (no thrombin cleavage) (UniProt P14736;P32628 101-632;1-77+230-398, internal_change)
T1 sequence 1: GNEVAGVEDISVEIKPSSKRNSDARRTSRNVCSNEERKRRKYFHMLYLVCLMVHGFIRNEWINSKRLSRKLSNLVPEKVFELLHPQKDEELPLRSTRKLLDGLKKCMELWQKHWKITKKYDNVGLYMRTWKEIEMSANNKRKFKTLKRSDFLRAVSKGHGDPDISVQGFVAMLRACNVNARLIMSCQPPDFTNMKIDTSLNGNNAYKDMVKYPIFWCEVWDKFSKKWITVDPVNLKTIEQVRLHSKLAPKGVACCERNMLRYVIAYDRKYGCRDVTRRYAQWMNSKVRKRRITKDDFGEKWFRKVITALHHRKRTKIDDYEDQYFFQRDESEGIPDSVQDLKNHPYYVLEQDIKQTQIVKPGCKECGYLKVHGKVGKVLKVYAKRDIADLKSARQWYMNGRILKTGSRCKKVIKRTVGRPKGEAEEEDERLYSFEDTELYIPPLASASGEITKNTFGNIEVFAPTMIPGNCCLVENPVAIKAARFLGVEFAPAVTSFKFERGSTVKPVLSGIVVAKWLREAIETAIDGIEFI
T1 sequence 2: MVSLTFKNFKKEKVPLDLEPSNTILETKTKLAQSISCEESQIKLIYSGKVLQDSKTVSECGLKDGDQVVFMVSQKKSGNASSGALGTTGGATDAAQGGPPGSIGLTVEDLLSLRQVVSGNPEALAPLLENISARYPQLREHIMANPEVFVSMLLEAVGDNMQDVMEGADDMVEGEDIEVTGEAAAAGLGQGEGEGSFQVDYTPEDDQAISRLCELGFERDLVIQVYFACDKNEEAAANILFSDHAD
Assay: competitive EMSA; apparent Kns; 1000 nM cold CH7_NX competitor; EMSA: 5 mM BTP-HCl pH 6.8, 75 mM NaCl, 5 mM DTT, 5% glycerol, 0.74 mM CHAPS, 500 ug/ml BSA, room temperature 20 min, 5 nM labeled DNA, 1000 nM cold CH7_NX
Conditions: protein: recombinant; tags: N-terminal His tag on Rad4; copies: 1;1; label: 32P; fully matched; 5' overhang 1 nt at both ends
pKd: −log10 of the molar value.
Readout Name: pKd

Please supply the value of reported pKd for the item CCC/GGG matched (dsDNA) DNA 1: TTGACTCGACATCCCCCGCTACAA DNA 2: ATTGTAGCGGGGGATGTCGAGTCA
~6.43
